Record form. Attribute: IC50. Fill in for each entry.
target.or.system: PAS domain-containing serine/threonine-protein kinase (Homo sapiens)
Sequence (Q96RG2 whole entry, the tested form may be a part): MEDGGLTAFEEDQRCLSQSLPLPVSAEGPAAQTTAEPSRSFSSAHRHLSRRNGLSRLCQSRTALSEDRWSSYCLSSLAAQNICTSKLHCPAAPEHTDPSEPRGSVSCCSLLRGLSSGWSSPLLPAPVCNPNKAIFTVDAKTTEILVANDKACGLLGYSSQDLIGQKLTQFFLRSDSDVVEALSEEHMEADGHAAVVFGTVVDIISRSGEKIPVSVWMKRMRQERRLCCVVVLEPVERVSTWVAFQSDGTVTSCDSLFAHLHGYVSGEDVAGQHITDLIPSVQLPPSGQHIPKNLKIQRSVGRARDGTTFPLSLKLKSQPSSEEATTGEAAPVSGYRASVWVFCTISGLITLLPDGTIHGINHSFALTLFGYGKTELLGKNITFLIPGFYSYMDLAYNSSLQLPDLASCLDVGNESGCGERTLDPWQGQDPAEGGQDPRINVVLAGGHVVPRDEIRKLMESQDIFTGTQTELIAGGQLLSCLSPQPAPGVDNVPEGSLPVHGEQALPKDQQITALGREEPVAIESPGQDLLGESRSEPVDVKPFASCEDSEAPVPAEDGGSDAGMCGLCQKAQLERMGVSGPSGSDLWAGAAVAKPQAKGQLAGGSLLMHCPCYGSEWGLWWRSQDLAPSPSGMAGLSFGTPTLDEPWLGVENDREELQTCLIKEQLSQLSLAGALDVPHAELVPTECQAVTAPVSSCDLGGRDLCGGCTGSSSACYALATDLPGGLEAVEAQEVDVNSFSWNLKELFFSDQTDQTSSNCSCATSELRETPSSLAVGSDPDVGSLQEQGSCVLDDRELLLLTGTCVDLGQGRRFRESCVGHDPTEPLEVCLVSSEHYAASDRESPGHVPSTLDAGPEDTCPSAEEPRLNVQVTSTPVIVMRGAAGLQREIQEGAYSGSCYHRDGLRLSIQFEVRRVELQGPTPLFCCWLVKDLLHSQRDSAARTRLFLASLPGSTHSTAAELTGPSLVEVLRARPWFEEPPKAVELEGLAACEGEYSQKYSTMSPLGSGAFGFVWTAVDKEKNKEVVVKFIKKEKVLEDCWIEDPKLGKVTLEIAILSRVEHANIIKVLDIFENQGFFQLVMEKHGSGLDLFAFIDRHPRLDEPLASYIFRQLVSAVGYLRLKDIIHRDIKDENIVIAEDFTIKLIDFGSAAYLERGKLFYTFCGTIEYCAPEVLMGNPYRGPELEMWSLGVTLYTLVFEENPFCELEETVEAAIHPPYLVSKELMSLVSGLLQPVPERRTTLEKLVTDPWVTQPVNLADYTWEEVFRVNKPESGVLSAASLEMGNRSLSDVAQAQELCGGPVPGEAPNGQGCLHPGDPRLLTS
measurement.protocol: Inhibition of N-terminal GST-tagged human recombinant PASK kinase domain (879 to 1323 residues) expressed in insect cells using MBP protein substrate incubated for 120 mins in presence of [33P]ATP by scintillation counting based radiochemical assay

Q: Fill in: IC50 of CCCNC(=O)c1cnn2c(=O)cc(-c3ccc4[nH]nnc4c3)[nH]c12 is ___
A: ≤ 10 µM

Q: Fill in: IC50 of COc1ccc(-c2cc(=O)n3nc(O)c(-c4ccccn4)c3[nH]2)c(OC)c1 is ___
A: ≤ 10 µM

Q: Fill in: IC50 of Nc1nn2c(=O)cc(-c3ccc4c(c3)OCCO4)[nH]c2c1-c1ccccn1 is ___
A: ≤ 10 µM

Q: Fill in: IC50 of O=c1cc(-c2ccccn2)[nH]c2c(-c3ccc(F)cc3)cnn12 is ___
A: ≤ 10 µM

Q: Fill in: IC50 of O=c1cc(-c2ccc3occc3c2)[nH]c2c(-c3ccccc3)cnn12 is ___
A: ≤ 10 µM

Q: Fill in: IC50 of O=C(NCc1ccccc1)c1cnn2c(=O)cc(-c3ccc4c(c3)OCCO4)[nH]c12 is ___
A: ≤ 10 µM

Q: Fill in: IC50 of O=c1cc(-c2ccc(Cl)cc2)[nH]c2c(-c3ccccn3)c(O)nn12 is ___
A: ≤ 10 µM

Q: Fill in: IC50 of O=C(NCc1ccccc1)c1cnn2c(=O)cc(-c3ccc(Cl)cc3)[nH]c12 is ___
A: ≤ 10 µM

Q: Fill in: IC50 of O=c1cc(-c2ccc(Cl)cc2)[nH]c2c(-c3cccnc3)c(O)nn12 is ___
A: ≤ 10 µM

Q: Fill in: IC50 of Cc1nn2c(=O)cc(-c3ccc4ncccc4c3)[nH]c2c1Cc1ccccc1 is ___
A: ≤ 10 µM

Q: Fill in: IC50 of Nc1nn2c(=O)cc(-c3ccc4c(c3)OCCO4)[nH]c2c1-c1ccccc1 is ___
A: ≤ 10 µM

---

target.or.system: Casein kinase II subunit alpha' (Homo sapiens, UniProt P19784)
Sequence (P19784 whole entry): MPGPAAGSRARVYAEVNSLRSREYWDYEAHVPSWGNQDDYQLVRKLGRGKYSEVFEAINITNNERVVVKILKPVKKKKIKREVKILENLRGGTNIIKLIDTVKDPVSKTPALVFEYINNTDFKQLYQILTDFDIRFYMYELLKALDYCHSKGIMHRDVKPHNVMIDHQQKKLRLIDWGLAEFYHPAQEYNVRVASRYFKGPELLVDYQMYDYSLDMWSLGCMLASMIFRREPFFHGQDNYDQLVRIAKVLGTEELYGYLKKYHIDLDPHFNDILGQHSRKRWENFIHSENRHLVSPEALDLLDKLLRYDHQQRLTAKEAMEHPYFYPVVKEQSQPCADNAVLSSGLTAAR
measurement.protocol: Inhibition of GST-tagged full-length purified human CK2a2 using RRRDDDSDDD substrate incubated for 120 mins in presence of [33P]ATP by scintillation counting based biochemical assay
property.name: IC50

Q: Fill in: IC50 of CCc1nn2c(=O)cc(-c3ccc4c(c3)OCO4)[nH]c2c1-c1ccccn1 is ___
A: ≤ 10 µM

Q: Fill in: IC50 of Cc1nn2c(=O)cc(-c3ccc4cc[nH]c4c3)[nH]c2c1Cc1ccccc1 is ___
A: ≥ 10 µM

Q: Fill in: IC50 of Nc1nn2c(=O)cc(-c3ccc4[nH]ncc4c3)[nH]c2c1-c1ccccn1 is ___
A: ≤ 10 µM

Q: Fill in: IC50 of CCCNC(=O)c1cnn2c(=O)cc(-c3ccc4c(c3)OCCO4)[nH]c12 is ___
A: ≤ 10 µM

Q: Fill in: IC50 of Cc1nn2c(=O)cc(-c3ccc4c(c3)OCO4)[nH]c2c1Cc1cccc(Cl)c1 is ___
A: ≤ 10 µM

Q: Fill in: IC50 of COc1cccc(-c2cc(=O)n3nc(C)c(Cc4ccc(Cl)cc4)c3[nH]2)c1 is ___
A: ≥ 10 µM

Q: Fill in: IC50 of O=c1cc(-c2ccc3c(c2)OCCO3)[nH]c2c(-c3ccc(N4CCCC4)nc3)cnn12 is ___
A: ≤ 10 µM

Q: Fill in: IC50 of COc1ccc(-c2cc(=O)n3ncc(-c4ccc(F)cc4)c3[nH]2)cc1 is ___
A: ≤ 10 µM

Q: Fill in: IC50 of COc1ccc(-c2cc(=O)n3ncc(-c4ccccn4)c3[nH]2)cc1OC is ___
A: ≤ 10 µM

Q: Fill in: IC50 of O=c1cc(-c2ccc(-c3ncco3)cc2)[nH]c2c(-c3ccccn3)cnn12 is ___
A: ≥ 10 µM

---

Record form. Attribute: IC50. Fill in for each entry.
target.or.system: PAS domain-containing serine/threonine-protein kinase (Homo sapiens)
measurement.protocol: Inhibition of purified full-length human PASK expressed in insect cells using MBP protein substrate incubated for 10 mins before ATP addition and measured after 1 hr by kinase-Glo luminescent kinase assay

Q: Fill in: IC50 of COc1ccc(-c2c(C)nn3c(=O)cc(Cc4ccccc4)[nH]c23)cc1 is ___
A: ≥ 10 µM

Q: Fill in: IC50 of O=c1cc(Cc2ccccc2)[nH]c2c(-c3ccccc3)c(Cc3ccccc3)nn12 is ___
A: ≥ 10 µM

Q: Fill in: IC50 of COCc1cc(=O)n2nc(-c3ccc(Cl)cc3)cc2[nH]1 is ___
A: ≥ 10 µM

Q: Fill in: IC50 of COc1ccccc1-c1cc(=O)n2nc(C)c(-c3ccccc3)c2[nH]1 is ___
A: ≤ 10 µM

Q: Fill in: IC50 of COc1ccc(-c2c(Cc3ccccc3)nn3c(=O)cc(-c4ccccc4)[nH]c23)cc1 is ___
A: ≥ 10 µM

Q: Fill in: IC50 of Cc1nn2c(=O)cc(-c3ccc([N+](=O)[O-])cc3)[nH]c2c1-c1ccc(Cl)cc1 is ___
A: ≤ 10 µM

Q: Fill in: IC50 of Cc1cc(=O)n2nc(C)c(-c3ccc(Cl)cc3)c2[nH]1 is ___
A: ≥ 10 µM

Q: Fill in: IC50 of COc1ccc(-c2cc(=O)n3nc(C)c(-c4ccccc4)c3[nH]2)cc1 is ___
A: ≤ 10 µM

Q: Fill in: IC50 of O=c1cc(-c2ccccc2)[nH]c2c(-c3ccc(Cl)cc3)c(Cc3ccccc3)nn12 is ___
A: ≥ 10 µM

Q: Fill in: IC50 of CCCc1cc(=O)n2nc(Cc3ccccc3)c(-c3ccc(Cl)cc3)c2[nH]1 is ___
A: ≥ 10 µM

Q: Fill in: IC50 of COCc1cc(=O)n2nc(Cc3ccccc3)c(-c3ccc(OC)cc3)c2[nH]1 is ___
A: ≥ 10 µM

Q: Fill in: IC50 of COc1ccc(-c2cc(=O)n3nc(C)c(-c4ccc(F)cc4)c3[nH]2)cc1 is ___
A: ≤ 10 µM

Q: Fill in: IC50 of O=c1cc(Cc2ccccc2)[nH]c2c(-c3ccccc3)c(-c3ccccc3)nn12 is ___
A: ≥ 10 µM

Q: Fill in: IC50 of COc1ccc(-c2c(C)nn3c(=O)cc(-c4ccccc4)[nH]c23)cc1 is ___
A: ≥ 10 µM

Q: Fill in: IC50 of Cc1cc(=O)n2nc(-c3ccc(Cl)cc3)cc2[nH]1 is ___
A: ≤ 10 µM

Q: Fill in: IC50 of COCc1cc(=O)n2nc(Cc3ccccc3)c(-c3ccc(Cl)cc3)c2[nH]1 is ___
A: ≥ 10 µM

Q: Fill in: IC50 of Cc1nn2c(=O)cc(-c3ccc(Cl)cc3)[nH]c2c1-c1ccccc1 is ___
A: ≤ 10 µM

Q: Fill in: IC50 of O=c1c2c([nH]c3c(-c4ccc(Cl)cc4)c(Cc4ccccc4)nn13)CCC2 is ___
A: ≥ 10 µM

Q: Fill in: IC50 of COc1ccc(Cc2nn3c(=O)cc(-c4ccccc4)[nH]c3c2-c2ccccc2)cc1 is ___
A: ≥ 10 µM

Q: Fill in: IC50 of Cc1ccc(-c2cc(=O)n3nc(C)c(-c4ccccc4)c3[nH]2)cc1 is ___
A: ≥ 10 µM

Q: Fill in: IC50 of Cc1nn2c(=O)c(C#N)c(-c3ccccc3)[nH]c2c1-c1ccccc1 is ___
A: ≥ 10 µM

---

Record form. Attribute: IC50. Fill in for each entry.
target.or.system: Casein kinase II subunit alpha' (Homo sapiens, UniProt P19784)
measurement.protocol: Inhibition of GST-tagged full-length purified human CK2a2 using RRRDDDSDDD substrate incubated for 120 mins in presence of [33P]ATP by scintillation counting based biochemical assay

Q: Fill in: IC50 of O=c1cc(-c2ccc3c(c2)OCCO3)[nH]c2c(-c3cccnc3)cnn12 is ___
A: ≤ 10 µM

Q: Fill in: IC50 of O=c1cc(-c2ccc3[nH]nnc3c2)[nH]c2c(-c3cccnc3)cnn12 is ___
A: ≤ 10 µM

Q: Fill in: IC50 of O=c1cc(-c2ccc(Cl)c(Cl)c2)[nH]c2c(-c3ccccn3)cnn12 is ___
A: ≤ 10 µM

Q: Fill in: IC50 of NC(=O)c1cnn2c(=O)cc(-c3ccc4c(c3)OCCO4)[nH]c12 is ___
A: ≤ 10 µM

Q: Fill in: IC50 of O=c1cc(-c2ccc3c(c2)OCO3)[nH]c2c(Cc3ccccc3)cnn12 is ___
A: ≤ 10 µM

Q: Fill in: IC50 of O=c1cc(-c2ccccn2)[nH]c2c(-c3ccc(F)cc3)cnn12 is ___
A: ≤ 10 µM

Q: Fill in: IC50 of O=c1cc(-c2ccc3[nH]ncc3c2)[nH]c2c(-c3ccccn3)cnn12 is ___
A: ≤ 10 µM

Q: Fill in: IC50 of COc1ccc(-c2cc(=O)n3ncc(-c4ccccn4)c3[nH]2)cc1 is ___
A: ≤ 10 µM

Q: Fill in: IC50 of Cc1nn2c(=O)cc(-c3ccccc3)[nH]c2c1Cc1ccccc1 is ___
A: ≥ 10 µM

Q: Fill in: IC50 of O=c1cc(-c2ccc3c(c2)CCO3)[nH]c2c(-c3cccnc3)c(O)nn12 is ___
A: ≤ 10 µM
